Reference source: paper PMC7904550

Assay: in vivo
Settings: female, Wistar, rat, in vivo, 500 mg/kg
endpoint: concentration at 1 h (ng/mL)
One number for each entry, in ng/mL.

Query concentration at 1 h for CCCCOC(=O)c1ccc(O)cc1 [Butyl paraben, Butyl 4-hydroxybenzoate]
31.5

###

Assay: in vivo
Details: female, Wistar, rat, serum, po, 1000 mg/kg, Cmax, parent compound; females
endpoint: Cmax (ng/mL)
Numbers only, in ng/mL.

Query Cmax for CCOC(=O)c1ccc(O)cc1 [Ethyl paraben, Ethyl 4-hydroxybenzoate]
5000

###

Assay: in vivo
Details: parent compound; 1000 mg/kg; female
endpoint: Clast (ng/mL)
Answers are plain numbers, in ng/mL.

- compound: "CCOC(=O)c1ccc(O)cc1 [Ethyl paraben, Ethyl 4-hydroxybenzoate]"
  measured value: 168
- compound: "COC(=O)c1ccc(O)cc1 [Methyl paraben, Methyl 4-hydroxybenzoate]"
  measured value: 179
- compound: "CCCCOC(=O)c1ccc(O)cc1 [Butyl paraben, Butyl 4-hydroxybenzoate]"
  measured value: 23.6

Let us move to another entry and its Clast.
Query Clast for CCCOC(=O)c1ccc(O)cc1 [Propyl paraben, Propyl 4-hydroxybenzoate]
11.6

###

I'd be grateful if you could share measured C1h/Cmax for these entries.
Assay: in vivo
Settings: parent compound; 1000 mg/kg; male
Give bare numbers, in %.

The cases that follow already have their C1h/Cmax on record.
- compound: "CCCCOC(=O)c1ccc(O)cc1 [Butyl paraben, Butyl 4-hydroxybenzoate]"
  endpoint: "C1h/Cmax"
  measured value: 5.7
- compound: "CCCOC(=O)c1ccc(O)cc1 [Propyl paraben, Propyl 4-hydroxybenzoate]"
  endpoint: "C1h/Cmax"
  measured value: 8.5

Field: C1h/Cmax. Fill in for each record below.
1. COC(=O)c1ccc(O)cc1 [Methyl paraben, Methyl 4-hydroxybenzoate]
2. CCOC(=O)c1ccc(O)cc1 [Ethyl paraben, Ethyl 4-hydroxybenzoate]

[5.1, 4.0]

###

Assay: in vivo
Details: female, Wistar, rat, in vivo, po, 500 mg/kg
endpoint: Tmax (min)
One number for each entry, in min.

Query Tmax for CCCCOC(=O)c1ccc(O)cc1 [Butyl paraben, Butyl 4-hydroxybenzoate]
4.8

###

I'd be grateful if you could share measured C1h/Cmax for these entries.
Test: in vivo
Settings: parent compound; 1000 mg/kg; female
Numbers only, in %.

- molecule: "CCCOC(=O)c1ccc(O)cc1 [Propyl paraben, Propyl 4-hydroxybenzoate]"
  endpoint: "C1h/Cmax"
  measured value: 2.1
- molecule: "CCOC(=O)c1ccc(O)cc1 [Ethyl paraben, Ethyl 4-hydroxybenzoate]"
  endpoint: "C1h/Cmax"
  measured value: 5.9
- molecule: "COC(=O)c1ccc(O)cc1 [Methyl paraben, Methyl 4-hydroxybenzoate]"
  endpoint: "C1h/Cmax"
  measured value: 2.7

Let us move to another entry and its C1h/Cmax.
Query C1h/Cmax for CCCCOC(=O)c1ccc(O)cc1 [Butyl paraben, Butyl 4-hydroxybenzoate]
6.9

###

Experiment: in vivo
Settings: parent compound; 500 mg/kg; female
I'd be grateful if you could share measured AUC0-1 h/AUC0–t for these entries.
Reply with the number and its unit after it.

The cases that follow already have their AUC0-1 h/AUC0–t on record.
- molecule: "CCCCOC(=O)c1ccc(O)cc1 [Butyl paraben, Butyl 4-hydroxybenzoate]"
  endpoint: "AUC0-1 h/AUC0–t"
  measured value: "44%"
- molecule: "CCCOC(=O)c1ccc(O)cc1 [Propyl paraben, Propyl 4-hydroxybenzoate]"
  endpoint: "AUC0-1 h/AUC0–t"
  measured value: "26%"
- molecule: "CCOC(=O)c1ccc(O)cc1 [Ethyl paraben, Ethyl 4-hydroxybenzoate]"
  endpoint: "AUC0-1 h/AUC0–t"
  measured value: "70%"

Let us move to another entry and its AUC0-1 h/AUC0–t.
Query AUC0-1 h/AUC0–t for COC(=O)c1ccc(O)cc1 [Methyl paraben, Methyl 4-hydroxybenzoate]
68%
